Data provenance is PubChem BioAssay AID488899.

- method-description: inhibitors of MITF-dependent TRPM1 promoter reporter, primary screen, cell-based, SK-MEL-5, single point, luciferase (AID 488899)
- measurement-conditions: SK-MEL-5 TRPM1 promoter luciferase, 24 h; at 12.5 µM; stronger effect = higher value
Among all 330,000 compounds or so, about 2,800 (0.85%) were called active. Only a selection was taken, and actives are over-represented in it overall.
Each item that follows carries a reported inhibition.
Give a bare numeral; the unit % is implied.

Solved entries (count: 3):
# molecule, property, quantitative-readout
measured = [
    ("C[C@]12CC[C@H](O)C[C@H]1CC[C@@H]1C2CC[C@]2(C)[C@@H](C3=CC(=O)OC3)[C@@H](O)C[C@]12O (stereo not given in full)", "inhibition", 80.6),
    ("CC1CNCCN1c1ccc(Cl)cc1 (stereo not given)", "inhibition", -17.8),
    ("CN(C)C(=O)NC(O)C(Cl)(Cl)Cl (stereo not given)", "inhibition", 8.39),
]

So what's the measured inhibition for this one? C[C@]12CCC3C(CC[C@H]4C[C@@H](O)CC[C@]34C)C1CC[C@@H]2O (stereo not given in full) 6.32

So what's the measured inhibition for this one? "COC(=O)C1=C(c2ccc3ccccc3c2)C[C@@H]2CC[C@H]1N2C(=O)NCCO" -9.09
